# Disease Control Rating at 500 ppm annotations
Test system: Botrytis cinerea
METHOD_NOTES: Eggplant grey mold
Type: in vivo
Design: key: 0: No disease control; 1: Low level of control; 2: Moderate control; 3: High level of control
CONDITION_DETAILS: eggplant sprayed with 500 ppm, inoculated 24 h later, rated after 3-4 days
Protocol: Eggplant seed are planted in 2.25" square pots, six per pot, and maintained in growth chambers set at 23° C., 80% humidity, and 12 h photoperiod. When the plants are at the cotyledon stage (14-18 days afterplanting), the plants are sprayed with 1.5 mL/pot of 500, 100 or 20 ppm 2:3 acetone:water (with 0.5% Tween® 20) formulations of the test compounds. Twenty-four hours later the plants are inoculated with Botrytis cinerea, approximately 0.5 mL/pot of a 4×10^6 spore/mL suspension. […]
MEASURED_METRIC: Disease Control Rating at 500 ppm

1. Cn1cc(C(=O)Nc2ccccc2C2CCCCCCC2)c(C(F)F)n1 [Example 24]    2
2. Cc1ccc(OC2CCCCC2)c(NC(=O)c2cn(C)nc2C(F)(F)F)c1 [Example 97]    1
3. Cn1cc(C(=O)Nc2ccccc2C=C2CCCC2)c(C(F)(F)F)n1 [Example 127]    1
4. Cc1c(C(=O)Nc2ccccc2C2CCCCCC2)c(C(F)(F)F)nn1C [Example 99]    1
5. CC1C=C(c2ccccc2NC(=O)c2cn(C)nc2C(F)(F)F)CC1 (stereo not shown) [Example 148]    2
6. Cc1nn(C)c(C)c1C(=O)Nc1ccccc1C1CCCCCC1 [Example 66]    2
7. Cn1cc(C(=O)Nc2ccc(F)cc2C2(C)CCCCC2)c(C(F)F)n1 [Example 95]    0
8. Cc1c(C(=O)Nc2ccccc2C2CCCCCC2)c(Cl)nn1C [Example 105]    1
9. Cc1nn(C)cc1C(=O)Nc1ccccc1C1CCCCC1 [Example 3]    2
10. Cn1cc(C(=O)Nc2ccccc2C=C2CCCCC2)c(C(F)(F)F)n1 [Example 40]    1
11. COc1ccc(C2CCCCC2)c(NC(=O)c2cn(C)nc2C(F)(F)F)c1 [Example 32]    2
12. CC1CC=C(c2ccccc2NC(=O)c2cn(C)nc2C(F)F)C1 (stereo not shown) [Example 149]    1
13. CC1=C(C(=O)Nc2ccccc2)SCCO1 [Carboxin, carboxin, reference compound]    0

###

Test system: Botrytis cinerea
METHOD_NOTES: Vine grey mold (grape berries)
Format: in vivo
CONDITION_DETAILS: grape berries treated with 50 ppm, average of six berries, 7-10 days, read-out: % DISEASE CONTROL 50 ppm
For each record, check the reported pest or weed control at 50 ppm: if it is below 50% write met, else write not met.

1. Cn1cc(C(=O)Nc2ccccc2CC2CCCCCC2)c(C(F)F)n1    met
2. Cn1cc(C(=O)Nc2cc(Br)cc(Br)c2C2CCCCC2)c(C(F)(F)F)n1    met
3. Cn1cc(C(=O)Nc2ccccc2C2CCCCCC2)c(OC(F)F)n1    met
4. Cn1cc(C(=S)Nc2ccccc2C2CCCCC2)c(C(F)F)n1    not met
5. COc1ccc(C2CCCCCCC2)c(NC(=O)c2cn(C)nc2C(F)(F)F)c1    met
6. CC1=C(c2ccccc2NC(=O)c2cn(C)nc2C(F)F)C(C)CCC1 (stereo not drawn)    met
7. Cn1cc(C(=O)Nc2ccccc2C2=CCCCC2)c(C(F)F)n1    not met
8. Cn1cc(C(=O)Nc2ccccc2C=C2CCCCC2)c(C(F)F)n1    met
9. Cn1cc(C(=O)Nc2ccccc2C2CCCCC2)c(I)n1    met
10. Cn1cc(C(=O)Nc2ccccc2O[C@H]2C[C@H]3CC[C@@H]2C3)c(C(F)F)n1 (relative stereo)    met
11. Cn1cc(C(=O)Nc2ccccc2OCCCC2CCCC2)c(C(F)(F)F)n1    met
12. Cn1cc(C(=O)Nc2ccccc2O[C@H]2CC[C@@H](C)CC2)c(C(F)(F)F)n1    met
13. Cn1cc(C(=O)Nc2ccccc2C2CCCC2)c(Br)n1    met
14. Cn1cc(C(=O)Nc2ccc(F)cc2C2CCCCC2)c(C(F)F)n1    not met
15. CC(c1ccccc1NC(=O)c1cn(C)nc1C(F)(F)F)C1CCCC1 (stereo not drawn)    met
16. Cn1nc(C(F)(F)F)c(C(=O)Nc2ccccc2C2CCCCC2)c1Cl    not met
17. Cn1cc(C(=O)Nc2cc(Cl)ccc2C2CCCCC2)c(C(F)(F)F)n1    met
18. Cc1nn(C)c(Cl)c1C(=O)Nc1ccccc1[C@@H]1C[C@H]2CC[C@@H]1C2 (relative stereo)    met
19. Cn1cc(C(=O)Nc2ccccc2C2=CCCCCC2)c(C(F)(F)F)n1    not met
20. CCC1CC=C(c2ccccc2NC(=O)c2cn(C)nc2C(F)(F)F)CC1 (stereo not drawn)    not met
21. Cn1cc(C(=O)Nc2ccccc2C2=CC(C)(C)CC(C)(C)C2)c(C(F)(F)F)n1    met
22. Cn1cc(C(=O)Nc2ccccc2OCC2CCC2)c(C(F)(F)F)n1    met
23. C[C@@H]1CCC[C@H](C)[C@@H]1Oc1ccccc1NC(=O)c1cn(C)nc1C(F)(F)F    met
24. Cn1cc(C(=O)Nc2ccccc2C2=CCOCC2)c(C(F)F)n1    met
25. C=C(c1ccccc1NC(=O)c1cn(C)nc1C(F)(F)F)C1CCCC1    met
26. Cn1nc(C(F)(F)F)c(C(=O)Nc2ccccc2[C@@H]2C[C@H]3CC[C@@H]2C3)c1Cl (relative stereo)    met
27. Cn1cc(C(=O)Nc2ccccc2C=C2CCCCCC2)c(C(F)(F)F)n1    met
28. Cn1cc(C(=O)Nc2cc(Cl)ccc2C2CCCCC2)c(C(F)F)n1    met
29. Cn1cc(C(=S)Nc2ccccc2C2CCCCCC2)c(C(F)(F)F)n1    met
30. Cn1cc(C(=O)Nc2ccccc2OCCCC2CCCC2)c(C(F)F)n1    met
31. Cn1cc(C(=O)Nc2ccccc2C2=CCC(C(C)(C)C)CC2)c(C(F)(F)F)n1 (stereo not drawn)    met
32. Cn1cc(C(=O)Nc2ccc(F)cc2C2(C)CCCCC2)c(C(F)F)n1    met
33. Cn1cc(C(=O)Nc2ccccc2C2=CCCCCC2)c(C(F)F)n1    not met
34. CCC1CC=C(c2ccccc2NC(=O)c2cn(C)nc2C(F)F)CC1 (stereo not drawn)    not met
35. Cn1cc(C(=O)Nc2ccccc2OCCC2CCCC2)c(C(F)F)n1    met
36. Cn1cc(C(=O)Nc2ccccc2OCC2CCC2)c(C(F)F)n1    met
